B1: F1*; the commonest letter at each place (parent)
chain: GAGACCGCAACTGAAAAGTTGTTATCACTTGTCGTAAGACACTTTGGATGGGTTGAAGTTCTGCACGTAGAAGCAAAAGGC

Variants of: B1
PROTOCOL TEXT: fraction ligated after 30 min (ligated reads / total reads); higher = more ligase activity
CONDITION INFO: with F1*sub RNA substrate (template-directed ligation), 42 °C
We begin with a simple list: items and their reported fraction ligated.
API note: the answer field is a bare number with no unit suffix.

// worked examples, fraction ligated included
[
  {
    "MUTATION NAME": "A41G T44A",
    "fraction ligated": 0.796
  },
  {
    "MUTATION NAME": "T29G A48C",
    "fraction ligated": 0.756
  },
  {
    "MUTATION NAME": "T23A C42A",
    "fraction ligated": 0.817
  },
  {
    "MUTATION NAME": "G34C T45A",
    "fraction ligated": 0.0783
  }
]

Qu. I'd like to know its fraction ligated. The variant in question is G55A A56C A57G
Ans. 0.0754

Qu. I'd like to know its fraction ligated. The variant in question is T30G G47A
Ans. 0.654

Qu. I'd like to know its fraction ligated. The variant in question is T32C A39T
Ans. 0.778

Qu. I'd like to know its fraction ligated. The variant in question is A41T G50A
Ans. 0.342

Qu. I'd like to know its fraction ligated. The variant in question is A24C G50A
Ans. 0.431

Qu. I'd like to know its fraction ligated. The variant in question is C28A A48T
Ans. 0.424

Qu. I'd like to know its fraction ligated. The variant in question is G47A A57C
Ans. 0.703

Qu. I'd like to know its fraction ligated. The variant in question is C33G A48T
Ans. 0.0603

Qu. I'd like to know its fraction ligated. The variant in question is A24G T35A
Ans. 0.786

Qu. I'd like to know its fraction ligated. The variant in question is T25G A39T
Ans. 0.393

Qu. I'd like to know its fraction ligated. The variant in question is A24T
Ans. 0.778

Qu. I'd like to know its fraction ligated. The variant in question is T32A A41C
Ans. 0.8

Qu. I'd like to know its fraction ligated. The variant in question is C28T G55T
Ans. 0.765

Qu. I'd like to know its fraction ligated. The variant in question is A48T T49G
Ans. 0.348

Qu. I'd like to know its fraction ligated. The variant in question is T43A G55T
Ans. 0.839

Qu. I'd like to know its fraction ligated. The variant in question is A36T A56T
Ans. 0.823

Qu. I'd like to know its fraction ligated. The variant in question is C28G G50C
Ans. 0.19

Qu. I'd like to know its fraction ligated. The variant in question is C40G A41T
Ans. 0.768

Qu. I'd like to know its fraction ligated. The variant in question is A27C A48G
Ans. 0.256

Qu. I'd like to know its fraction ligated. The variant in question is A24T G50T
Ans. 0.535

Qu. I'd like to know its fraction ligated. The variant in question is G46C G55T
Ans. 0.674
